Quick reference: z-score of the listed items.
- PROCEDURE_TEXT: modulators of S6 phosphorylation in cells, primary screen, cell-based, A549, cytoblot, luminescence, serum-stimulated (AID 1158);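 note: serum-stimulated A549 lung adenocarcinoma cells; signal is phosphorylated S6 detected by cytoblot immunostaining with HRP secondary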
- CONDITION: A549 phospho-S6 cytoblot, 5 h, higher = more signal

| SMILES_STRUCTURE | z-score |
| --- | --- |
| CC(C)C[C@@H]1NC(=O)[C@@H]2C[C@H](C(=O)NCc3ccc(F)cc3)[C@H](c3cccc(OCCO)c3)N2C1=O | 0.74 |
| CCOC(=O)C1=CC[C@@H](c2ccccc2)N(S(=O)(=O)c2ccc(C)cc2)[C@H]1c1ccccc1C | -0.102 |
| O=C1C[C@]2(c3ccc([N+](=O)[O-])cc3)C(=O)N(CC(F)(F)F)c3cc(CO)ccc3[C@H]2N1C1CCCCC1 | -0.116 |
| O=C(c1ccccc1)N1C(=O)[C@@]2(Cc3ccccc31)N=C(c1ccc(OCCCO)cc1)O[C@H]2c1ccccc1 | -0.256 |
| CCCC[C@@H]1C[C@H]1[C@@H](NC(=O)c1ccco1)c1ccccc1C(F)(F)F | -0.278 |
| C=CCOC(=O)[C@H]1[C@@H]2C(=O)O[C@@H](c3ccccc3)[C@@H](c3ccccc3)N2[C@@H](c2ccc(OCCOC(=O)[C@@H]3C[C@@H]4C(=O)N[C@@H](CCCCNC(C)=O)C(=O)N4[C@@H]3c3ccc(O)cc3)cc2)[C@]12C(=O)Nc1ccccc12 | -0.0842 |
| COc1ccccc1CN1C(=O)c2ccccc2[C@@H](C(=O)NC2CC2)[C@@H]1c1ccc(CO)cc1 | -0.291 |

---

- TESTED_SYSTEM: Follistatin (Homo sapiens)
- PROCEDURE_TEXT: follistatin binders on small-molecule microarrays, primary screen, biochemical, small-molecule microarray, 635/667 nm fluorescence (AID 1132)
- CONDITION: FST binding, 635 nm fluorescence, higher = more signal
// not fulfilled strictly below 1 in composite z-score; fulfilled otherwise

| SMILES_STRUCTURE | TESTED_SYSTEM | GROUP |
| --- | --- | --- |
| O=C(c1ccccc1)N1Cc2ccccc2C[C@@]2(COC(c3ccc(OCCCO)cc3)=N2)C1=O | Follistatin (Homo sapiens) | fulfilled |
| C=CCOC(=O)[C@@H]1[C@H]2C(=O)O[C@H](c3ccccc3)[C@H](c3ccccc3)N2[C@H](c2ccc(OCCOC(=O)[C@H]3C[C@H]4C(=O)N5CCC[C@H]5C(=O)N4[C@H]3c3ccc(O)cc3)cc2)[C@@]12C(=O)Nc1ccc(I)cc12 | Follistatin (Homo sapiens) | fulfilled |
| COc1ccc([Si](C)(C)[C@H]2[C@H](CCO)O[C@@]3(C(=O)N(Cc4ccc(N(C=O)c5ccccc5)cc4)c4ccccc43)[C@@H]2C)cc1 | Follistatin (Homo sapiens) | not fulfilled |
| [N-]=[N+]=Nc1ccccc1[C@H]1OC(c2ccc(OCCCO)cc2)=N[C@@]1(CCS(=O)(=O)c1ccccc1)C(N)=O | Follistatin (Homo sapiens) | not fulfilled |
| C=CCNC(=O)[C@@H]1[C@H]2C(=O)O[C@H](c3ccccc3)[C@H](c3ccccc3)N2[C@H](c2ccc(O)cc2)[C@@]12C(=O)N(C(=O)OCCOC)c1ccc(C#CCNC(N)=O)cc12 | Follistatin (Homo sapiens) | fulfilled |

---

- PROCEDURE_TEXT: small-molecule microarray binders of probe aShh, primary screen, biochemical, biotinylated probe, 635/667 nm fluorescence (AID 1114);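 note: probe is biotin-labelled aShh protein from a stem cell growth factor screen; measures binding of labelled protein to compounds printed on the slide; score merges feature fluorescence at 667 nm with signal-to-noise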
- CONDITION: higher = more signal
VALUE_TYPE: composite z-score

| COMPOUND | NUMERIC_READOUT |
| --- | --- |
| CCOC(=O)C[C@H]1[C@H](OC(=O)c2ccccc2-c2ccccc2)[C@@H](NC(=O)CC(C)C)c2cc(OCCCO)ccc2N1C(=O)Cc1ccc(OC)cc1 | 0.199 |
| COCCOC(=O)N1C(=O)[C@@]2(c3cc(C#CCC(C(=O)OC)C(=O)OC)ccc31)[C@H](c1ccccc1OCCO)N1[C@H](c3ccccc3)[C@H](c3ccccc3)OC(=O)[C@H]1[C@@H]2C(=O)NC[C@H](O)c1ccccc1 | 0.275 |
| O=C1C2C=CC(C(O)Cc3ccccc3)N(n3cnnc3)C2C(=O)N1Cc1ccccc1 (configuration not stated) | -0.007 |
| COc1ccc(C#Cc2ccc3c(c2)[C@]2(C(=O)N3)[C@H](c3ccccc3OCCO)N3[C@H](c4ccccc4)[C@H](c4ccccc4)OC(=O)[C@H]3[C@@H]2C(=O)Nc2nc3ccccc3s2)cc1 | -0.0556 |
| COc1ccccc1CN1C(=O)c2ccccc2[C@@]2(Cc3ccccc3N(CC(C)C)C2=O)[C@@H]1c1ccc(CO)cc1 | -0.214 |
| [N-]=[N+]=Nc1ccccc1[C@@H]1OC(c2ccc(OCCCO)cc2)=N[C@]1(CCS(=O)(=O)c1ccccc1)C(N)=O | 0.57 |
| COCC(=C=CC[C@@H](O)c1cccc(OCCO)c1)C[C@@H](O)c1ccccn1 | -0.221 |
| COc1cc2c(cc1OC)CN(C(=O)[C@H]1[C@@H]3C(=O)O[C@@H](c4ccccc4)[C@@H](c4ccccc4)N3[C@@H](c3ccc(O)cc3)[C@]13C(=O)Nc1ccccc13)CC2 | -0.0289 |
| C=CCC(OC(C)=O)[C@@H]1[C@@H](N(Cc2ccc(-c3ccccc3)cc2)C(=O)c2cccc3ccccc23)c2cc(OCCCO)ccc2N1C(=O)c1ccc(-c2ccccc2)cc1 (some centres not stated) | -0.0793 |
| C=C[C@H](C)[C@@H](OC(=O)Nc1ccc(OC)cc1)c1ccc(O)c2ccccc12 | 0.318 |
| C=CC[C@@]12N=C(c3ccc(OCCCO)cc3)O[C@@H]1c1ccccc1N(C)C2=O | 0.547 |
| C=CCOC(=O)[C@@H]1[C@H]2C(=O)O[C@H](c3ccccc3)[C@H](c3ccccc3)N2[C@H](c2ccc(OCCOC(=O)[C@@H]3C[C@@H]4C(=O)NCC(=O)N4[C@@H]3c3ccc(O)cc3)cc2)[C@@]12C(=O)Nc1ccc(I)cc12 | 0.0796 |
| CCCCCN1CC=CC23O[C@@H]4C=CCCOC(=O)C4[C@H]2C(=O)N(CCCCCO)[C@@H]3C1=O (some centres not stated) | -0.243 |
| CCOC(=O)C[C@H]1[C@H](OC(=O)c2ccc(C(=O)c3ccccc3)cc2)[C@@H](NC(=O)c2ccc3ccccc3n2)c2cc(OCCCO)ccc2N1C(=O)c1ccccc1 | 0.308 |
| CC(C)c1ccc(NN2C(C(O)c3ccc(B(O)O)cc3)C=CC3C(=O)N(c4ccccc4)C(=O)C32)cc1 (configuration not stated) | -0.0362 |
| CC(C)NC(=O)[C@@H]1c2ccccc2C(=O)N(C2Cc3ccccc3C2)[C@H]1c1ccc(CO)cc1 | -0.366 |
| COC(=O)[C@@]1(Cc2ccc(OC)cc2)[C@@H]2C(=CC(=O)[C@H]2CC(=O)C(=O)N2CCCC2)CN1C(=O)c1ccccc1 | 1.06 |

---

Quick reference: z-score of the listed items.
- PROCEDURE_TEXT: cell viability in Huh7 cells, primary screen, cytotoxicity control for HCV replication inhibitor project, CellTiter-Glo luminescence, basal, 48 h (AID 1143);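 note: Huh7 hepatoma cells carrying a hepatitis C replication reporter with no stimulus; test concentration not given here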
- CONDITION: Huh7 HCV replicon, higher = more signal, called active from +8 up or from −8 down
VALUE_TYPE: z-score

| COMPOUND | NUMERIC_READOUT |
| --- | --- |
| CCC(CC)C(O)C1C=CC2C(=O)NC(=O)C2N1Nc1ccccn1 (centres undefined) | 1.06 |
| COC(=O)[C@H](Cc1ccccc1)N1CC2=C[C@@H](C3CC3)n3c(=O)n(C)c(=O)n3[C@H]2[C@@H]1[C@@H](O)Cc1ccccc1 | -1.18 |
| NC(=O)NCC#Cc1ccc2c(c1)[C@]1(C(=O)N2)[C@H](c2ccccc2OCCO)N2[C@H](c3ccccc3)[C@H](c3ccccc3)OC(=O)[C@H]2[C@@H]1C(=O)Nc1nc2ccccc2s1 | 0.0402 |
| CC1CC/C=C\[C@H]2OC34C=CCN(C(C)(C)C)C(=O)[C@H]3N(C(C)CO)C(=O)[C@@H]4C2C(=O)O1 (some centres undefined) | 0.4 |
| CCCCCCc1nc(-c2cc(C)c(OC)c(C)c2)cc2c1[Si](C(C)C)(C(C)C)OC2 | -2.72 |
| COCCOC(=O)N1C(=O)[C@@]2(c3cc(C#Cc4ccc(OC)cc4)ccc31)[C@H](c1ccccc1OCCO)N1[C@H](c3ccccc3)[C@H](c3ccccc3)OC(=O)[C@H]1[C@@H]2C(=O)NC[C@H](O)c1ccccc1 | -3.23 |
| C=C[C@H](C)[C@@H](OC(=O)Nc1ccc(OC)cc1)c1ccc(O)c2ccccc12 | -6 |
| C=CCNC(=O)[C@H]1[C@@H]2C(=O)O[C@@H](c3ccccc3)[C@@H](c3ccccc3)N2[C@@H](c2ccccc2OCCO)[C@]12C(=O)Nc1ccc(C#CCC(C(=O)OC)C(=O)OC)cc12 | -3.8 |
| CN1C(=O)C2C=CC(C(O)c3ccco3)N(Nc3ccccc3)C2C1=O (centres undefined) | 1.11 |
| COC(=O)[C@@]1(Cc2ccccc2)N=C(c2ccc(OCCCO)cc2)O[C@H]1c1ccccc1 | -4.45 |
| C=C(COC)C(=O)CC[C@@H](OC(C)=O)c1ccc(CO)o1 | 0.622 |
| CC(C)[Si](C#Cc1ccc(Oc2ccccc2)cc1)(O[Si](C#Cc1ccc(Oc2ccccc2)cc1)(C(C)C)C(C)C)C(C)C | 0.479 |
| CC(C)c1ccc(NN2C(C(O)c3ccc(B(O)O)cc3)C=CC3C(=O)N(c4ccccc4)C(=O)C32)cc1 (centres undefined) | -0.0793 |
| COCCOC(=O)N1C(=O)[C@@]2(c3cc(C#CCC(C(=O)OC)C(=O)OC)ccc31)[C@H](c1ccccc1OCCO)N1[C@H](c3ccccc3)[C@H](c3ccccc3)OC(=O)[C@H]1[C@@H]2C(=O)N1CCN(c2ncccn2)CC1 | -4.45 |

Source listed as PubChem BioAssay.
